target: HDAC2 (Homo sapiens)
Construct: purchased Enzo Life Sciences
Sequence (Q92769 whole entry): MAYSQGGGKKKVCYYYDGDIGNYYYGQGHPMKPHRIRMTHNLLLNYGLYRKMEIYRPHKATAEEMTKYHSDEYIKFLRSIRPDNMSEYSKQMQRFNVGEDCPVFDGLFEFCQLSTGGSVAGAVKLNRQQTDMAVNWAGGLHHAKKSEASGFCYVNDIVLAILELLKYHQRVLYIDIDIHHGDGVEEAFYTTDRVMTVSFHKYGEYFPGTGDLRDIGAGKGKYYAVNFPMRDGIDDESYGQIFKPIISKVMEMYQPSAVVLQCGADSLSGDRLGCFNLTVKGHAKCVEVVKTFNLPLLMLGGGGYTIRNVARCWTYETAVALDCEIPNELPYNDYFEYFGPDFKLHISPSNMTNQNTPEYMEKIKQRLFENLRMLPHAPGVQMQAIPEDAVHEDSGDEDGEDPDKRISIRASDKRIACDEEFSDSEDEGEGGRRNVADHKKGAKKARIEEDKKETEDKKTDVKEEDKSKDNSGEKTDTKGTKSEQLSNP
assayName: HDAC Inhibition Screening Assay (FLUOR DE LYS Fluorimetric Drug Discovery Kit), HDAC2
Assay type: biochemical
conditionsUsed: 10 μM compound
Record form. Attribute: inhibition at 10 µM. Fill in for each entry.

## Input Please state recorded inhibition at 10 µM (tested on HDAC2 (Homo sapiens)) of Nc1cc(F)ccc1NC(=O)/C=C/c1ccc2c(c1)CCC2NC(=O)c1cc(C(F)(F)F)cc(C(F)(F)F)c1 (stereo not drawn) [Compound 21]
## Output < 50%

## Input Try this molecule too: O=C(CCCCCCC(=O)NC1CCCc2cc(Br)ccc21)NO (stereo not drawn) [Compound 46]
## Output 50 to 80%

## Input Try this molecule too: O=C(CCCCCNC(=O)c1ccc2c(c1)CC/C(=C\c1cc(C(F)(F)F)cc(C(F)(F)F)c1)C2=O)NO [Compound 79]
## Output > 80%

## Input Try this molecule too: Nc1cc(F)ccc1NC(=O)/C=C/c1ccc2c(c1)CCCC2NC(=O)c1cc(C(F)(F)F)cc(C(F)(F)F)c1 (stereo not drawn) [Compound 23]
## Output < 50%

## Input Try this molecule too: O=C(/C=C/c1ccc(COc2ccc3c(c2)CC/C(=C\c2cc(C(F)(F)F)cc(C(F)(F)F)c2)C3=O)cc1)NO [Compound 72]
## Output < 50%

## Input Try this molecule too: O=C(CCCCCCC(=O)Nc1ccc2c(c1)CCCC2=O)NO [Compound 1]
## Output > 80%

## Input Try this molecule too: Nc1cc(F)ccc1NC(=O)CCCCCCC(=O)NC1CCc2cc(/C=C/C(=O)Nc3cc(Cl)cc(Cl)c3)ccc21 (stereo not drawn) [Compound 41]
## Output < 50%

## Input Try this molecule too: Cc1[nH]c2ccccc2c1CCNC1CCc2cc(/C=C/C(=O)Nc3ccc(F)cc3N)ccc21 (stereo not drawn) [Compound 59]
## Output > 80%

## Input Try this molecule too: COc1ccc(C(=O)NC2CCc3cc(/C=C/C(=O)NO)ccc32)cc1 (stereo not drawn) [Compound 25]
## Output > 80%

## Input Try this molecule too: O=C(CCCCCNC(=O)COc1ccc2c(c1)CC/C(=C\c1cc(C(F)(F)F)cc(C(F)(F)F)c1)C2=O)NO [Compound 74]
## Output > 80%

## Input Try this molecule too: O=C(/C=C/c1ccc2c(c1)CCC2NCCC(=O)Nc1cc(C(F)(F)F)cc(C(F)(F)F)c1)NO (stereo not drawn) [Compound 50]
## Output > 80%

## Input Try this molecule too: CCN(CC)c1ccc(C(=O)NC2CCc3cc(/C=C/C(=O)NCCCCCC(=O)NO)ccc32)cc1 (stereo not drawn) [Compound 30]
## Output > 80%

## Input Try this molecule too: O=C(CCCCCCC(=O)Nc1ccc2c(c1)CCC/C2=N\O)NO [Compound 3]
## Output > 80%

## Input Try this molecule too: O=C(CCCCCCC(=O)Nc1ccc2c(c1)CC/C(=C\c1cc(C(F)(F)F)cc(C(F)(F)F)c1)C2=O)NO [Compound 4]
## Output > 80%

## Input Try this molecule too: O=C(/C=C/c1ccc(COc2ccc3c(c2)CCC(Cc2cc(C(F)(F)F)cc(C(F)(F)F)c2)C3=O)cc1)NO (stereo not drawn) [Compound 73]
## Output < 50%

## Input Try this molecule too: O=C(/C=C/c1ccc2c(c1)CCCC2OCc1cc(C(F)(F)F)cc(C(F)(F)F)c1)NO (stereo not drawn) [Compound 36]
## Output > 80%

## Input Try this molecule too: Nc1cc(F)ccc1NC(=O)CCCCC(=O)N1CCN(C(=O)c2ccc3c(c2)CC/C(=C\c2cc(C(F)(F)F)cc(C(F)(F)F)c2)C3=O)CC1 [Compound 82]
## Output < 50%

## Input Try this molecule too: Nc1cc(F)ccc1NC(=O)/C=C/c1ccc2c(c1)CC/C(=C\c1cc(C(F)(F)F)cc(C(F)(F)F)c1)C2=O [Compound 6]
## Output < 50%

## Input Try this molecule too: Cc1ccc(S(=O)(=O)NC2CCc3cc(/C=C/C(=O)NO)ccc32)cc1 (stereo not drawn) [Compound 16]
## Output > 80%

## Input Try this molecule too: COc1ccc2c(c1)CCCC2NC(=O)CCCCCCC(=O)Nc1ccc(F)cc1N (stereo not drawn) [Compound 47]
## Output 50 to 80%

## Input Try this molecule too: COc1ccc(S(=O)(=O)NC2CCc3cc(/C=C/C(=O)Nc4ccc(F)cc4N)ccc32)cc1 (stereo not drawn) [Compound 19]
## Output < 50%

## Input Try this molecule too: O=C(CCCCC(=O)Nc1ccc2c(c1)CC/C(=C\c1cc(C(F)(F)F)cc(C(F)(F)F)c1)C2=O)NO [Compound 14]
## Output 50 to 80%

## Input Try this molecule too: Nc1cc(F)ccc1NC(=O)CCCCCNC(=O)/C=C/c1ccc2c(c1)CCC2NC(=O)c1ccc(F)cc1 (stereo not drawn) [Compound 31]
## Output > 80%

## Input Try this molecule too: CN(C)c1ccc(CCNC2CCc3cc(/C=C/C(=O)NO)ccc32)cc1 (stereo not drawn) [Compound 56]
## Output > 80%

## Input Try this molecule too: COc1ccc(S(=O)(=O)NC2CCc3cc(/C=C/C(=O)NO)ccc32)cc1 (stereo not drawn) [Compound 20]
## Output > 80%

## Input Try this molecule too: O=C(/C=C/c1ccc2c(c1)CCC2OCc1cc(C(F)(F)F)cc(C(F)(F)F)c1)NO (stereo not drawn) [Compound 34]
## Output > 80%

## Input Try this molecule too: Nc1cc(F)ccc1NC(=O)CCCCCC(=O)Nc1ccc2c(c1)CC/C(=C\c1cc(C(F)(F)F)cc(C(F)(F)F)c1)C2=O [Compound 11]
## Output < 50%

## Input Try this molecule too: Nc1cc(F)ccc1NC(=O)/C=C/c1ccc2c(c1)CCC2NCCC(=O)Nc1cc(C(F)(F)F)cc(C(F)(F)F)c1 (stereo not drawn) [Compound 49]
## Output < 50%

## Input Try this molecule too: O=C(CCCCNC(=O)c1ccc2c(c1)CC/C(=C\c1cc(C(F)(F)F)cc(C(F)(F)F)c1)C2=O)NO [Compound 81]
## Output < 50%

## Input Try this molecule too: CN(C(=O)OCc1cc(C(F)(F)F)cc(C(F)(F)F)c1)C1CCc2cc(/C=C/C(=O)NO)ccc21 (stereo not drawn) [Compound 64]
## Output > 80%

---

Record form. Attribute: inhibition at 10 µM. Fill in for each entry.
target: HDAC1 (Homo sapiens)
Construct: purchased Enzo Life Sciences
Sequence (Q13547 whole entry): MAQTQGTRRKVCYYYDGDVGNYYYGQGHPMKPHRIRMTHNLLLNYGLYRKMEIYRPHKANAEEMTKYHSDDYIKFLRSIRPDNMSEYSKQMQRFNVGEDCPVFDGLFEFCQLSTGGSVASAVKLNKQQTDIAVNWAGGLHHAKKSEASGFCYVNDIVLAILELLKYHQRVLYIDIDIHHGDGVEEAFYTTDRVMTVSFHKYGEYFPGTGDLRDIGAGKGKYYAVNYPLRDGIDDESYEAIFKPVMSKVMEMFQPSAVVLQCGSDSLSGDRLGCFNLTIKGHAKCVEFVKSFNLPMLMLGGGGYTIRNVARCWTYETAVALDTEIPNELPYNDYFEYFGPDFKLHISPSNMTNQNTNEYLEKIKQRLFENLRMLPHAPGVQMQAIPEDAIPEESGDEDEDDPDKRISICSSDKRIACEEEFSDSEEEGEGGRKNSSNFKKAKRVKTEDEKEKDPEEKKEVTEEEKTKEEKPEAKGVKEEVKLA
assayName: HDAC Inhibition Screening Assay (FLUOR DE LYS Fluorimetric Drug Discovery Kit), HDAC1
Assay type: biochemical
conditionsUsed: 10 μM compound

## Input What measured inhibition at 10 µM goes with O=C(CCCCCC(=O)Nc1ccc2c(c1)CC/C(=C\c1cc(C(F)(F)F)cc(C(F)(F)F)c1)C2=O)NO [Compound 12] ?
## Output 50 to 80%

## Input Try this compound too: COc1ccc2c(c1)CCCC2NC(=O)CCCCCCC(=O)NO (centres unmarked) [Compound 48]
## Output > 80%

## Input Try this compound too: O=C(/C=C/c1ccc2c(c1)CCCC2NCCc1c[nH]c2ccccc12)NO (centres unmarked) [Compound 61]
## Output > 80%

## Input Try this compound too: CN(C(=O)OCc1cc(C(F)(F)F)cc(C(F)(F)F)c1)C1CCc2ccc(/C=C/C(=O)NO)cc21 (centres unmarked) [Compound 65]
## Output 50 to 80%

## Input Try this compound too: O=C(CCCCCCC(=O)Nc1ccc2c(c1)CCC/C2=N\O)NO [Compound 3]
## Output > 80%

## Input Try this compound too: O=C(CCCCCCC(=O)Nc1ccc2c(c1)CCC(Cc1cc(C(F)(F)F)cc(C(F)(F)F)c1)C2=O)NO (centres unmarked) [Compound 10]
## Output 50 to 80%

## Input Try this compound too: Nc1cc(F)ccc1NC(=O)/C=C/c1ccc2c(c1)CCCC2NC(=O)c1cc(C(F)(F)F)cc(C(F)(F)F)c1 (centres unmarked) [Compound 23]
## Output < 50%

## Input Try this compound too: O=C(/C=C/c1ccc2c(c1)CCC2NCc1cc(C(F)(F)F)cc(C(F)(F)F)c1)NO (centres unmarked) [Compound 33]
## Output > 80%

---

Record form. Attribute: inhibition at 50 µM. Fill in for each entry.
target: HDAC3 (Homo sapiens, UniProt O15379)
Construct: purchased Enzo Life Sciences
Sequence (O15379 whole entry): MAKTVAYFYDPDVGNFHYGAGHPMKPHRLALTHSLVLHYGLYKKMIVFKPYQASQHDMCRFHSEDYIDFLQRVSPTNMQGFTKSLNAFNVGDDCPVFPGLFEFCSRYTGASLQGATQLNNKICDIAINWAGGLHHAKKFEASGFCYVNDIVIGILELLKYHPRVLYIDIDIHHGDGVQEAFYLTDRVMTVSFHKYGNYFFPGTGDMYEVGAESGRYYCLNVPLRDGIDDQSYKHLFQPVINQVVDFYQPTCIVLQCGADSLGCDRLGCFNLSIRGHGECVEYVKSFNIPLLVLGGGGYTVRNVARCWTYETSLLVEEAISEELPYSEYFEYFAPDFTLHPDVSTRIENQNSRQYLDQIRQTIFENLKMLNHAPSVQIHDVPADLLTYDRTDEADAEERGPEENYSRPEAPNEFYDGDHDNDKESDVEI
Sequence (O75376 395-489 partner limits assumed): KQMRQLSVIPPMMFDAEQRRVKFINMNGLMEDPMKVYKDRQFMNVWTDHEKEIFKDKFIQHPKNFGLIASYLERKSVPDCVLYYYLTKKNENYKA
assayName: HDAC Inhibition Screening Assay (FLUOR DE LYS Fluorimetric Drug Discovery Kit), HDAC3
Format: biochemical
conditionsUsed: 50 μM compound

## Input What measured inhibition at 50 µM goes with O=C(/C=C/c1ccc2c(c1)CCC2NCCc1c[nH]c2ccccc12)NO (stereo not shown) ?
## Output > 80%

## Input Try this compound too: CN(C(=O)OCc1cc(C(F)(F)F)cc(C(F)(F)F)c1)C1CCc2cc(/C=C/C(=O)NO)ccc21 (stereo not shown)
## Output > 80%

## Input Try this compound too: O=C(/C=C/c1ccc(COc2ccc3c(c2)CC/C(=C\c2cc(C(F)(F)F)cc(C(F)(F)F)c2)C3=O)cc1)NO
## Output 50 to 80%

## Input Try this compound too: COc1ccc2c(c1)CCCC2NC(=O)CCCCCCC(=O)NO (stereo not shown)
## Output > 80%

## Input Try this compound too: O=C(/C=C/c1ccc2c(c1)CC/C(=C\c1cc(C(F)(F)F)cc(C(F)(F)F)c1)C2=O)NCCCCCC(=O)NO
## Output > 80%

## Input Try this compound too: Nc1cc(F)ccc1NC(=O)CCCCCCC(=O)Nc1ccc2c(c1)CC/C(=C\c1cc(C(F)(F)F)cc(C(F)(F)F)c1)C2=O
## Output < 50%

## Input Try this compound too: O=C(CCCCCNC(=O)COc1ccc2c(c1)CC/C(=C\c1cc(C(F)(F)F)cc(C(F)(F)F)c1)C2=O)NO
## Output > 80%

## Input Try this compound too: O=C(CCCCC(=O)N1CCN(C(=O)c2ccc3c(c2)CC/C(=C\c2cc(C(F)(F)F)cc(C(F)(F)F)c2)C3=O)CC1)NO
## Output 50 to 80%

## Input Try this compound too: Nc1cc(F)ccc1NC(=O)CCCCCNC(=O)c1ccc2c(c1)CC/C(=C\c1cc(C(F)(F)F)cc(C(F)(F)F)c1)C2=O
## Output < 50%

## Input Try this compound too: O=C(/C=C/c1ccc2c(c1)CCC2NC(=O)c1ccc(F)cc1)NCCCCCC(=O)NO (stereo not shown)
## Output > 80%
